target: IP3K-KD (human IP3K-KD A isoform, residues 187–461) (Homo sapiens, UniProt P23677); construct: human IP3K-KD A isoform (residues 187–461); GST (cleaved yes); made in house; host or cells: Escherichia coli BL21 star (DE3); test: Fluorescence thermal shift analysis (Tycho NT.6, inflection temperature Ti); format: binding; conditions: source data of Fig. 6c, N 3
Sequence (P23677 187-461): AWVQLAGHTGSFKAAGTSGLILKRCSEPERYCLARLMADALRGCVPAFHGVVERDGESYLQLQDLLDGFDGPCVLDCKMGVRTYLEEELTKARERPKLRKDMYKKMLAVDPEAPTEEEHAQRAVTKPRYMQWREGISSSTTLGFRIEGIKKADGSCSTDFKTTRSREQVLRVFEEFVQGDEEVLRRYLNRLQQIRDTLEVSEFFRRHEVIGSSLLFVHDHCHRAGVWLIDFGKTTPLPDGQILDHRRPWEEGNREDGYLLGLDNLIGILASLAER
Below, each of the molecules is paired with its reported Transition 2 DTi (Ti-Ti Apo) value.
VALUE_TYPE: Transition 2 DTi (Ti-Ti Apo)

INSERT INTO results (molecule, value_type, value_measured) VALUES
  ('O=P(O)(O)O[C@@H]1[C@H](O)[C@@H](O)[C@@H](OP(=O)(O)O)[C@H](OP(=O)(O)O)[C@H]1O [4-s, L-chiro-inositol 2,3,5-trisphosphate]', 'Transition 2 DTi (Ti-Ti Apo)', 3.5),
  ('O=P(O)(O)O[C@@H]1O[C@H](CO)[C@@H](OP(=O)(O)O)[C@H](OP(=O)(O)O)[C@H]1O [6a–s, β-D-glucopyranosyl 1,3,4-trisphosphate]', 'Transition 2 DTi (Ti-Ti Apo)', 3.5),
  ('O=P(O)(O)O[C@@H]1[C@@H](O)[C@H](O)[C@@H](OP(=O)(O)O)[C@H](OP(=O)(O)O)[C@H]1O [1-s, L-scyllo-inositol 1,2,4-trisphosphate]', 'Transition 2 DTi (Ti-Ti Apo)', 6.9),
  ('O=P(O)(O)O[C@@H]1[C@H](O)[C@H](O)[C@@H](OP(=O)(O)O)[C@H](OP(=O)(O)O)[C@H]1O [InsP3, D-myo-inositol 1,4,5-trisphosphate, reference compound]', 'Transition 2 DTi (Ti-Ti Apo)', 4.4),
  ('O=P(O)(O)O[C@H]1O[C@H](CO)[C@@H](OP(=O)(O)O)[C@H](OP(=O)(O)O)[C@H]1O [6b–s, α-D-glucopyranosyl 1,3,4-trisphosphate]', 'Transition 2 DTi (Ti-Ti Apo)', 0.8),
  ('O=P(O)(O)O[C@H]1[C@H](O)[C@@H](OP(=O)(O)O)[C@H](OP(=O)(O)O)[C@@H](OP(=O)(O)O)[C@H]1O [InsP4, D-myo-inositol 1,3,4,5-tetrakisphosphate, reference compound]', 'Transition 2 DTi (Ti-Ti Apo)', 5.0),
  ('CO[C@@H]1O[C@H](CO)[C@@H](O[C@H]2[C@H](O)[C@H](O)[C@@H](OP(=O)(O)O)[C@H](OP(=O)(O)O)[C@H]2O)[C@H]1OP(=O)(O)O', 'Transition 2 DTi (Ti-Ti Apo)', 0.667),
  ('O=P(O)(O)O[C@@H]1[C@@H](O)[C@H](OP(=O)(O)O)C[C@@H](O)[C@H]1OP(=O)(O)O', 'Transition 2 DTi (Ti-Ti Apo)', 3.6),
  ('CO[C@@H]1O[C@H](CO)[C@@H](O[C@H]2O[C@H](CO)[C@@H](OP(=O)(O)O)[C@H](OP(=O)(O)O)[C@H]2O)[C@H]1OP(=O)(O)O', 'Transition 2 DTi (Ti-Ti Apo)', 0.333);

====

target: IP3K-KD (human IP3K-KD A isoform, residues 187–461) (Homo sapiens, UniProt P23677); construct: human IP3K-KD A isoform (residues 187–461); GST (cleaved yes); assay: Ligand displacement assay: fluorescence polarization (anisotropy) of 2-FITC-InsP3/IP3K-KD complex; settings: 100 nM IP3K-KD, 2 nM 2-FITC-InsP3, 20 mM HEPES pH 7.5, 1 mM EDTA, 50 mM KCl; n=4 replicates; 5-s and 5-p racemic; read-out: IC50, displacement of 2-FITC-InsP3 from IP3K-KD
pIC50: −log10 of the molar value.
Please enter true (1) where pIC50 is greater than or equal to 6, and false (0) where it is lower.

INSERT INTO results (molecule, assigned_category) VALUES
  ('O=P(O)(O)O[C@@H]1O[C@H](CO)[C@@H](OP(=O)(O)O)[C@H](OP(=O)(O)O)[C@H]1O [6a–s, β-D-glucopyranosyl 1,3,4-trisphosphate]', 'true (1)'),
  ('O=P(O)(O)O[C@@H]1[C@@H](O)[C@H](O)[C@@H](OP(=O)(O)O)[C@H](OP(=O)(O)O)[C@H]1O [1-s, L-scyllo-inositol 1,2,4-trisphosphate]', 'true (1)'),
  ('O=P(O)(O)O[C@@H]1[C@@H](O)[C@H](OP(=O)(O)O)[C@@H](OP(=O)(O)O)[C@H](OP(=O)(O)O)[C@H]1O [1-p]', 'true (1)'),
  ('O=P(O)(O)O[C@H]1O[C@H](CO)[C@@H](OP(=O)(O)O)[C@H](OP(=O)(O)O)[C@H]1O [6b–s, α-D-glucopyranosyl 1,3,4-trisphosphate]', 'false (0)');
